Source listed as patent US20100249145A1.

Molecular target: VEGF receptor KDR (Homo sapiens)
Construct: made in house; host or cells: Sf9 cells (Spodoptera frugiperda), recombinant baculovirus
Assay: In vitro receptor tyrosine kinase assay (DELFIA), VEGF receptor KDR
Type: biochemical
Details: Table 31; ATP 0.6 uM, enzyme 5 nM; read-out: VEGFR IC50
MEASURED ENDPOINT: IC50

[[record]]
smi = "C#Cc1cc(F)ccc1CC(=O)NC(=S)Nc1ccc(Oc2ccnc3cc(-c4ccc(CN5CCN(C)CC5)cc4)sc23)c(F)c1"
system_name = "VEGF receptor KDR (Homo sapiens)"
measured_endpoint = "IC50"
value_reported = "< 50 nM"

[[record]]
smi = "C#Cc1ccc(F)c(CC(=O)NC(=S)Nc2ccc(Oc3ccnc4cc(-c5cn(C)cn5)sc34)c(F)c2)c1"
system_name = "VEGF receptor KDR (Homo sapiens)"
measured_endpoint = "IC50"
value_reported = "< 50 nM"

[[record]]
smi = "O=C(Cc1ccccc1)NC(=S)Nc1ccc(Oc2ccnc3cc(-c4cccc[n+]4[O-])sc23)c(F)c1"
system_name = "VEGF receptor KDR (Homo sapiens)"
measured_endpoint = "IC50"
value_reported = "50 to 250 nM"

[[record]]
smi = "C#Cc1ccc(CC(=O)NC(=S)Nc2ccc(Oc3ccnc4cc(-c5nccn5C)sc34)c(F)c2)cc1F"
system_name = "VEGF receptor KDR (Homo sapiens)"
measured_endpoint = "IC50"
value_reported = "< 50 nM"


---

Recorded pIC50 for the following compounds
Molecular target: recombinant human c-Met/HGF receptor (Homo sapiens, UniProt P08581)
Construct: His tag (histidine tag from pBlueBacHis2A); made in house; host or cells: Hi-5 cells (Trichoplusia ni), recombinant baculovirus
Sequence (P08581 1078-1337): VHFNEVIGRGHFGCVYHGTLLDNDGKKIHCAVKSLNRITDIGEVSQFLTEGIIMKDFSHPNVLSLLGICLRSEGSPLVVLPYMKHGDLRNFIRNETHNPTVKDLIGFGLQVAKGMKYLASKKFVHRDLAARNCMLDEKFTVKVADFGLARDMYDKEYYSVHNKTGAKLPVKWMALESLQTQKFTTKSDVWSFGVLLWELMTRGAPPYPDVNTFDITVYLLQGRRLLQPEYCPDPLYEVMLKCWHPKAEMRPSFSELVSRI
Test: In vitro receptor tyrosine kinase assay (DELFIA), c-Met/HGF receptor
Format: biochemical
Conditions: Table 31; ATP 10 uM, enzyme 25 nM; read-out: CMet ic50
pIC50: −log10 of the molar value.
MEASURED ENDPOINT: pIC50

[[record]]
compound = "CCNC(=O)N1CCN(Cc2ccc(-c3cc4nccc(Oc5ccc(NC(=S)NC(=O)Cc6ccccc6)cc5F)c4s3)cc2)CC1"
system_name = "recombinant human c-Met/HGF receptor (Homo sapiens, UniProt P08581)"
value_reported = "> 7.30"

[[record]]
compound = "CN(c1ccc(NC(=S)NC(=O)Cc2ccccc2)cc1F)c1ccnc2cc(-c3cn(C)cn3)sc12"
system_name = "recombinant human c-Met/HGF receptor (Homo sapiens, UniProt P08581)"
value_reported = "> 7.30"

[[record]]
compound = "CC(C(=O)NC(=S)Nc1ccc(Oc2ccnc3cc(-c4nccn4C)sc23)c(F)c1)c1ccccc1 (centres unmarked)"
system_name = "recombinant human c-Met/HGF receptor (Homo sapiens, UniProt P08581)"
value_reported = "6.60 to 7.30"

[[record]]
compound = "Cc1ccccc1CC(=O)NC(=S)Nc1ccc(Oc2ccnc3cc(C4=CCN(C)CC4)sc23)c(F)c1"
system_name = "recombinant human c-Met/HGF receptor (Homo sapiens, UniProt P08581)"
value_reported = "> 7.30"

[[record]]
compound = "CC(=O)N1CC=C(c2cc3nccc(Oc4ccc(NC(=S)NC(=O)Cc5ccc(F)cc5)cc4F)c3s2)CC1"
system_name = "recombinant human c-Met/HGF receptor (Homo sapiens, UniProt P08581)"
value_reported = "> 7.30"

[[record]]
compound = "O=C(Cc1ccccc1)NC(=S)Nc1ccc(Oc2ccnc3cc(-c4ccc(CN5CCNCC5)cc4)sc23)c(F)c1"
system_name = "recombinant human c-Met/HGF receptor (Homo sapiens, UniProt P08581)"
value_reported = "> 7.30"

[[record]]
compound = "CNC(=O)N1CCN(Cc2ccc(-c3cc4nccc(Oc5ccc(NC(=S)NC(=O)Cc6ccccc6)cc5F)c4s3)cc2)CC1"
system_name = "recombinant human c-Met/HGF receptor (Homo sapiens, UniProt P08581)"
value_reported = "> 7.30"

[[record]]
compound = "C#Cc1cc2nccc(Oc3ccc(NC(=S)NC(=O)Cc4ccccc4)cc3F)c2s1"
system_name = "recombinant human c-Met/HGF receptor (Homo sapiens, UniProt P08581)"
value_reported = "6.60 to 7.30"


---

Recorded IC50 for the following molecules
Molecular target: VEGF receptor KDR (Homo sapiens, UniProt P35968)
Construct: made in house; host or cells: Sf9 cells (Spodoptera frugiperda), recombinant baculovirus
Sequence (P35968 806-1356): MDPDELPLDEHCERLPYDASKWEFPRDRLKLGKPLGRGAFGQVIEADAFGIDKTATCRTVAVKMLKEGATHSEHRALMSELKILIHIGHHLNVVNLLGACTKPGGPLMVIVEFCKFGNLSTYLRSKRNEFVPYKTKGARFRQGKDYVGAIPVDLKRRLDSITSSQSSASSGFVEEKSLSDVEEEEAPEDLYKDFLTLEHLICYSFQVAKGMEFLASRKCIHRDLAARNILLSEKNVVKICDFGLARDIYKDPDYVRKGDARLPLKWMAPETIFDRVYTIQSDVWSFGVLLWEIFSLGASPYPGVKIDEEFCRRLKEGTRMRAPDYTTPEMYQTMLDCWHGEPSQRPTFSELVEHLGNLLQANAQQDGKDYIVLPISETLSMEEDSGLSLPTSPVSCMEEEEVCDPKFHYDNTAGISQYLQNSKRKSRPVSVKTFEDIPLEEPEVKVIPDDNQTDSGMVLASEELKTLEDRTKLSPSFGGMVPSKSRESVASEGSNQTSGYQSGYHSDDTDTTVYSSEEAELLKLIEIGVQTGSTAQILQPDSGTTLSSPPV
Test: In vitro receptor tyrosine kinase assay (DELFIA), VEGF receptor KDR
Assay type: biochemical
Conditions: Table 30; ATP 0.6 uM, enzyme 5 nM; read-out: VEGF(enz.) (IC50)
Where a name gives a salt, the structure may show the parent alone.
MEASURED ENDPOINT: IC50

[[record]]
molecule = "O=C(Cc1ccccc1)NC(=S)Nc1ccc(Oc2ncnc3cc(C(=O)N4CCCC4)sc23)c(F)c1"
value_reported = "< 50 nM"

[[record]]
molecule = "O=C(Cc1ccccc1)NC(=S)Nc1ccc(Oc2ccnc3ccsc23)c(F)c1"
value_reported = "50 to 250 nM"

[[record]]
molecule = "NC(=O)c1cc2ncnc(Oc3ccc(NC(=S)NC(=O)Cc4ccccc4)cc3F)c2s1"
value_reported = "50 to 250 nM"

[[record]]
molecule = "CC(C)N(CCNC(=O)c1cc2nccc(Oc3ccc(NC(=S)NC(=O)Cc4ccccc4)cc3F)c2s1)C(C)C [Example 36, formate salt]"
value_reported = "> 500 nM"

[[record]]
molecule = "COC(=O)C(C)N(C(=S)NC(=O)Cc1ccccc1)c1ccc(Oc2ccnc3cc(C(N)=O)sc23)c(F)c1 (centres unmarked)"
value_reported = "> 500 nM"

[[record]]
molecule = "CCN(CC)C(=O)c1cc2nccc(Oc3ccc(NC(=S)NC(=O)Cc4ccccc4)cc3F)c2s1"
value_reported = "250 to 500 nM"

[[record]]
molecule = "CCn1ccc2ncnc(Oc3ccc(NC(=S)NC(=O)Cc4ccccc4)cc3F)c21"
value_reported = "> 500 nM"

[[record]]
molecule = "CNC(=O)c1cc2ncnc(Oc3ccc(NC(=S)NC(=O)Cc4ccccc4)cc3F)c2s1"
value_reported = "50 to 250 nM"


---

Tested on: A549
Test: A549 wound healing inhibition (HGF dependent migration)
Type: cell-based
Conditions: Homo sapiens, Table 31, read-out: A549 wound healing inbib IC50
MEASURED ENDPOINT: IC50

[[record]]
compound = "C#Cc1ccccc1CC(=O)NC(=S)Nc1ccc(Oc2ccnc3cc(-c4cn(CC)cn4)sc23)c(F)c1 [drawing 455]"
value_reported = "< 1000 nM"

[[record]]
compound = "C#Cc1ccccc1CC(=O)NC(=S)Nc1ccc(Oc2ccnc3cc(-c4nccn4CC)sc23)c(F)c1"
value_reported = "< 1000 nM"

[[record]]
compound = "O=C(Cc1ccc(F)cc1)NC(=S)Nc1ccc(Oc2ccnc3cc(-c4cc[n+]([O-])cc4)sc23)c(F)c1"
value_reported = "< 1000 nM"

[[record]]
compound = "CS(=O)(=O)c1ccc(-c2cc3nccc(Oc4ccc(NC(=S)NC(=O)Cc5ccc(F)cc5)cc4F)c3s2)cc1"
value_reported = "< 1000 nM"

[[record]]
compound = "C#Cc1ccc(CC(=O)NC(=S)Nc2ccc(Oc3ccnc4cc(-c5cn(CCN6CCCC6)cn5)sc34)c(F)c2)cc1"
value_reported = "> 10000 nM"

[[record]]
compound = "C=C(F)c1cccc(CC(=O)NC(=S)Nc2ccc(Oc3ccnc4cc(-c5cn(C)cn5)sc34)c(F)c2)c1"
value_reported = "1000 to 5000 nM"

[[record]]
compound = "CNC(=O)N1CCN(Cc2ccc(-c3cc4nccc(Oc5ccc(NC(=S)NC(=O)Cc6ccc(F)cc6)cc5F)c4s3)cc2)CC1"
value_reported = "< 1000 nM"

[[record]]
compound = "Cn1cnc(-c2cc3nccc(Oc4ccc(NC(=S)NC(=O)Cc5ccc(F)cc5)cc4F)c3s2)c1 [drawing 440]"
value_reported = "< 1000 nM"


---

System: DU145
Assay: DU145 scattering inhibition (HGF dependent scattering)
Type: cell-based
Details: Homo sapiens, DU-145, Table 31, read-out: DU145 scattering inhib IC50
Recorded IC50 for the following molecules
MEASURED ENDPOINT: IC50

[[record]]
molecule = "C#Cc1ccccc1CC(=O)NC(=S)Nc1ccc(Oc2ccnc3cc(-c4nccn4CC)sc23)c(F)c1"
value_reported = "< 1000 nM"

[[record]]
molecule = "C=C(F)c1ccccc1CC(=O)NC(=S)Nc1ccc(Oc2ccnc3cc(-c4cn(C)cn4)sc23)c(F)c1"
value_reported = "< 1000 nM"

[[record]]
molecule = "C#Cc1ccc(CC(=O)NC(=S)Nc2ccc(Oc3ccnc4cc(-c5nccn5C)sc34)c(F)c2)cc1"
value_reported = "> 10000 nM"

[[record]]
molecule = "COc1cccc(Nc2cc3nccc(Oc4ccc(NC(=S)NC(=O)Cc5ccccc5OC)cc4F)c3s2)c1"
value_reported = "1000 to 5000 nM"

[[record]]
molecule = "Cc1ccccc1CC(=O)NC(=S)Nc1ccc(Oc2ccnc3cc(C4=CCN(C)CC4)sc23)c(F)c1"
value_reported = "< 1000 nM"

[[record]]
molecule = "C#Cc1cc2nccc(Oc3ccc(NC(=S)NC(=O)Cc4ccccc4)cc3F)c2s1"
value_reported = "1000 to 5000 nM"

[[record]]
molecule = "C#Cc1ccccc1CC(=O)NC(=S)Nc1ccc(Oc2ccnc3cc(-c4ccc(CNCCOC)cn4)sc23)c(F)c1"
value_reported = "< 1000 nM"

[[record]]
molecule = "C#Cc1cc(F)ccc1CC(=O)NC(=S)Nc1ccc(Oc2ccnc3cc(-c4cn(CC)cn4)sc23)c(F)c1"
value_reported = "< 1000 nM"

[[record]]
molecule = "Cn1cnc(-c2cc3nccc(Oc4ccc(NC(=S)NC(=O)Cc5ccc(F)cc5)cc4F)c3s2)c1 [drawing 440]"
value_reported = "< 1000 nM"

[[record]]
molecule = "CN(c1ccc(NC(=S)NC(=O)Cc2ccccc2)cc1F)c1ccnc2cc(-c3cn(C)cn3)sc12"
value_reported = "< 1000 nM"

[[record]]
molecule = "CCn1ccnc1-c1cc2nccc(Oc3ccc(NC(=S)NC(=O)Cc4ccc(F)cc4)cc3F)c2s1"
value_reported = "< 1000 nM"

[[record]]
molecule = "C#Cc1ccc(F)c(CC(=O)NC(=S)Nc2ccc(Oc3ccnc4cc(-c5cn(C)cn5)sc34)c(F)c2)c1"
value_reported = "1000 to 5000 nM"

[[record]]
molecule = "O=C(Cc1ccccc1)NC(=S)Nc1ccc(Oc2ccnc3cc(-c4cn(CCN5CCCC5)cn4)sc23)c(F)c1"
value_reported = "< 1000 nM"

[[record]]
molecule = "CN(CCO)Cc1ccc(-c2cc3nccc(Oc4ccc(NC(=S)NC(=O)Cc5ccc(F)cc5)cc4F)c3s2)nc1"
value_reported = "< 1000 nM"

[[record]]
molecule = "COCCN(CCOC)Cc1cccc(-c2cc3nccc(Oc4ccc(NC(=S)NC(=O)Cc5ccc(F)cc5)cc4F)c3s2)c1"
value_reported = "< 1000 nM"

[[record]]
molecule = "C#Cc1ccccc1CC(=O)NC(=S)Nc1ccc(Oc2ccnc3cc(-c4cn(CC)cn4)sc23)c(F)c1 [drawing 455]"
value_reported = "< 1000 nM"

[[record]]
molecule = "Cn1cnc(-c2cc3nccc(Oc4ccc(NC(=S)NC(=O)Cc5ccc(F)cc5F)cc4F)c3s2)c1 [drawing 434]"
value_reported = "< 1000 nM"

